Give measured percent inhibition of viability for each item. Keep answers brief.
Tested on: normal NK cells expanded with K562-aAPC
method description: percent inhibition of viability; higher = more inhibition
condition set: 72 h; IL-2 2.5 ng/mL; 1000 nM
Your answer should be a number followed by the unit of measure.

Record excerpt, results attached:
>>> result("Nc1ccccc1NC(=O)c1ccc(CNc2nccc(-c3cccnc3)n2)cc1 [Mocetinostat] (max concentration tested 10000 nM)")
"81.4%"
>>> result("O=C(O)CCCc1ccc(N(CCCl)CCCl)cc1 [Chlorambucil] (max concentration tested 10000 nM)")
"-1.85%"

Now take the following compound into account.
percent inhibition of viability in this record for Cc1c(N)nc([C@H](CC(N)=O)NC[C@H](N)C(N)=O)nc1C(=O)N[C@H](C(=O)N[C@H](C)[C@@H](O)[C@H](C)C(=O)N[C@H](C(=O)NCCc1nc(-c2nc(C(=O)NCCC[S+](C)C)cs2)cs1)[C@@H](C)O)[C@@H](OC1OC(CO)C(O)C(O)C1OC1OC(CO)C(O)C(OC(N)=O)C1O)c1cnc[nH]1 (stereo partly drawn) [Bleomycin] (max concentration tested 10000 nM) : 34.1%

---

Test system: normal primary NK cells, pool 3 (3 donors) (IL-2 2.5 ng/mL)
method description: percent inhibition of viability; higher = more inhibition
condition set: 72 h; 100 nM
assay endpoint: percent inhibition of viability (%)
Answers are plain numbers, in %.

Record excerpt, results attached:
>>> quantitative_readout("C=C(c1ccc(C(=O)O)cc1)c1cc2c(cc1C)C(C)(C)CCC2(C)C [Bexarotene] (max concentration tested 10000 nM)")
4
>>> quantitative_readout("CC(C)N(C[C@H]1O[C@@H](n2cnc3c(N)ncnc32)[C@H](O)[C@@H]1O)[C@H]1C[C@@H](CCc2nc3cc(C(C)(C)C)ccc3[nH]2)C1 [Pinometostat] (max concentration tested 1000 nM)")
1.46
>>> quantitative_readout("NC(=O)Nc1cc(-c2cccc(F)c2)sc1C(=O)N[C@H]1CCCNC1 [AZD7762] (max concentration tested 1000 nM)")
-16.7
>>> quantitative_readout("CN(C)C(=N)NC(=N)N [Metformin] (max concentration tested 100000 nM)")
0.87
>>> quantitative_readout("CCN(CC)CCNC(=O)c1c(C)[nH]c(/C=C2\\C(=O)Nc3ccc(F)cc32)c1C [Sunitinib] (max concentration tested 1000 nM)")
-3.39

Go through the list and state percent inhibition of viability for each entry.
1. Cc1c(N)nc([C@H](CC(N)=O)NC[C@H](N)C(N)=O)nc1C(=O)N[C@H](C(=O)N[C@H](C)[C@@H](O)[C@H](C)C(=O)N[C@H](C(=O)NCCc1nc(-c2nc(C(=O)NCCC[S+](C)C)cs2)cs1)[C@@H](C)O)[C@@H](OC1OC(CO)C(O)C(O)C1OC1OC(CO)C(O)C(OC(N)=O)C1O)c1cnc[nH]1 (stereo partly drawn) [Bleomycin] (max concentration tested 10000 nM)
2. O=P1(NCCCl)OCCCN1CCCl (stereo not drawn) [Ifosfamide] (max concentration tested 10000 nM)

Result block:
1: 12.2; 2: -10.1

---

System: YT (IL-2 2.5 ng/mL)
method description: percent inhibition of viability; higher = more inhibition
condition set: 72 h; 100 nM
Give measured percent inhibition of viability for each item. Keep answers brief.
Numbers only, in %.

Record excerpt, results attached:
>>> quantitative_readout("N#CC1(c2ccc(NC(=O)c3cccnc3NCc3ccncc3)cc2)CCCC1 [Apatinib] (max concentration tested 10000 nM)")
2.63
>>> quantitative_readout("NC(=O)NO [Hydroxyurea] (max concentration tested 100000 nM)")
-9.74
>>> quantitative_readout("CC[C@H](CC#N)OC(=O)N[C@@H](C)c1cccc(NC(=O)Nc2ccc(-c3cnco3)c(OC)c2)c1 [AVN944] (max concentration tested 10000 nM)")
25.8
>>> quantitative_readout("CCCc1cc(C)[nH]c(=O)c1CNC(=O)c1cc(-c2ccnc(N3CCN(C)CC3)c2)cc2c1cnn2C(C)C [GSK343] (max concentration tested 10000 nM)")
-6.88
>>> quantitative_readout("Cn1ncnc1[C@H]1c2n[nH]c(=O)c3cc(F)cc(c23)N[C@@H]1c1ccc(F)cc1 [Talazoparib] (max concentration tested 1000 nM)")
-5.82

Go through the list and state percent inhibition of viability for each entry.
1. C[C@]12C=CC(=O)C=C1CC[C@@H]1[C@@H]2[C@@H](O)C[C@@]2(C)[C@H]1CC[C@]2(O)C(=O)CO [Prednisolone] (max concentration tested 10000 nM)
2. NS(=O)(=O)OC[C@@H]1C[C@@H](n2ccc3c(N[C@H]4CCc5ccccc54)ncnc32)C[C@@H]1O [Pevonedistat] (max concentration tested 10000 nM)
3. CC(C)(C)NC(=O)[C@H]1CC[C@H]2[C@@H]3CC[C@H]4NC(=O)C=C[C@]4(C)[C@H]3CC[C@]12C [Finasteride] (max concentration tested 10000 nM)
4. CN(C)CCN1C(=O)c2cccc3cc(N)cc(c23)C1=O [Amonafide] (max concentration tested 10000 nM)
5. N#CCNC(=O)c1ccc(-c2ccnc(Nc3ccc(N4CCOCC4)cc3)n2)cc1 [Momelotinib] (max concentration tested 10000 nM)

Result block:
[13.1, 62.7, 5.2, 7.92, 5.77]

Lab note: molecule CC(C)NC[C@@H](C(=O)N1CCN(c2ncnc3c2[C@H](C)C[C@H]3O)CC1)c1ccc(Cl)cc1 [GDC-0068] (max concentration tested 10000 nM) tested on YT (IL-2 2.5 ng/mL); recorded percent inhibition of viability was 9.38

---

Tested on: normal primary NK cells, pool 2 (3 donors) (IL-2 2.5 ng/mL)
method description: percent inhibition of viability; higher = more inhibition
condition set: 72 h; 2500 nM
assay endpoint: percent inhibition of viability (%)
One number for each entry, in %.

>>> quantitative_readout("O=C(Nc1cc(Cl)cc2c1[nH]c1cnccc12)c1cccnc1 [PS-1145] (max concentration tested 25000 nM)")
6.82
>>> quantitative_readout("Cc1cc([C@@H](C)Nc2ccccc2C(=O)O)c2nc(N3CCOCC3)cc(=O)n2c1 [AZD-6482] (max concentration tested 2500 nM)")
17.1
>>> quantitative_readout("C[C@@H]1CN(CC(=O)Nc2ccc3c(c2)Cc2cccc(-c4cc(=O)cc(N5CCOCC5)o4)c2S3)C[C@H](C)O1 (max concentration tested 25000 nM)")
7.62

percent inhibition of viability in this record for CC(C)Cn1cnc2c(N)nc3ccccc3c21 [Imiquimod] (max concentration tested 2500 nM) : 20.8

---

Test system: normal NK cells expanded with K562-aAPC
method description: percent inhibition of viability; higher = more inhibition
condition set: 72 h; IL-2 2.5 ng/mL; 10 nM
Give measured percent inhibition of viability for each item. Keep answers brief.
Answers are plain numbers, in %.

Record excerpt, results attached:
>>> quantitative_readout("NC(=S)N/N=C/c1ncccc1N [Triapine] (max concentration tested 10000 nM)")
-8.24
>>> quantitative_readout("CO[C@@H](C(=O)N1Cc2[nH]nc(NC(=O)c3ccc(N4CCN(C)CC4)cc3)c2C1)c1ccccc1 [Danusertib] (max concentration tested 10000 nM)")
-2.41
>>> quantitative_readout("CC(C)n1cnc2c(NCCc3ccc(O)cc3)nc(-c3csc4ccccc34)nc21 [StemRegenin 1] (max concentration tested 10000 nM)")
-5.75
>>> quantitative_readout("C[C@]12C=CC(=O)C=C1CC[C@@H]1[C@@H]2[C@@H](O)C[C@@]2(C)[C@H]1CC[C@]2(O)C(=O)CO [Prednisolone] (max concentration tested 10000 nM)")
5
>>> quantitative_readout("C[C@@H](C(=O)O)c1ccc(-c2ccccc2)c(F)c1 [Tarenflurbil] (max concentration tested 10000 nM)")
-4.88
>>> quantitative_readout("COc1cc([C@@H]2c3cc4c(cc3[C@@H](O[C@@H]3O[C@@H]5CO[C@@H](C)O[C@H]5[C@H](O)[C@H]3O)[C@H]3COC(=O)[C@H]23)OCO4)cc(OC)c1O [Etoposide] (max concentration tested 10000 nM)")
-8.84
>>> quantitative_readout("Cc1c(N)nc([C@H](CC(N)=O)NC[C@H](N)C(N)=O)nc1C(=O)N[C@H](C(=O)N[C@H](C)[C@@H](O)[C@H](C)C(=O)N[C@H](C(=O)NCCc1nc(-c2nc(C(=O)NCCC[S+](C)C)cs2)cs1)[C@@H](C)O)[C@@H](OC1OC(CO)C(O)C(O)C1OC1OC(CO)C(O)C(OC(N)=O)C1O)c1cnc[nH]1 (some centres undefined) [Bleomycin] (max concentration tested 10000 nM)")
-1.5
>>> quantitative_readout("CC(C)[C@H](C(=O)Nc1ccc(C(=O)NO)cc1)c1ccccc1 [AR-42] (max concentration tested 10000 nM)")
0.8
>>> quantitative_readout("CC(C)Oc1cc(Nc2nc(N[C@@H](C)c3ccc(F)cn3)ncc2Cl)n[nH]1 [AZ-23] (max concentration tested 1000 nM)")
0.04
>>> quantitative_readout("CCC(C)(C)C(=O)O[C@H]1C[C@@H](C)C=C2C=C[C@H](C)[C@H](CC[C@@H]3C[C@@H](O)CC(=O)O3)[C@H]21 [Simvastatin] (max concentration tested 10000 nM)")
-4.47

Go through the list and state percent inhibition of viability for each entry.
1. Cc1ccc(Nc2nccc(N(C)c3ccc4c(C)n(C)nc4c3)n2)cc1S(N)(=O)=O [Pazopanib] (max concentration tested 10000 nM)
2. Nc1ccccc1NC(=O)c1ccc(CNc2nccc(-c3cccnc3)n2)cc1 [Mocetinostat] (max concentration tested 10000 nM)
3. CCCc1cc(C)[nH]c(=O)c1CNC(=O)c1cc(-c2ccnc(N3CCN(C)CC3)c2)cc2c1cnn2C(C)C [GSK343] (max concentration tested 10000 nM)
4. Cc1c(CN2CCN(C(=O)[C@H](C)O)CC2)sc2c(N3CCOCC3)nc(-c3cnc(N)nc3)nc12 [Apitolisib] (max concentration tested 10000 nM)

Result block:
1. -2.13
2. -8.59
3. -5.79
4. -0.12

These data points were gathered from the supplement of paper PMC5908809.
